B1: Receptor-interacting serine/threonine-protein kinase 2, residues 438 to 518; numbered along this chain, O43353 (parent)
chain: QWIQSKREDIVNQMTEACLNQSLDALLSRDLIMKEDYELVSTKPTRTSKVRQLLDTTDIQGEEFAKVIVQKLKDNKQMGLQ

# Variants of: B1
# Test Summary: abundance fitness (aPCA) (normalised: wild type 0, dead -1); higher = more abundant; growth selection in yeast, the domain comes from the species named
# Applied Conditions: Homo sapiens
Property Label: abundance fitness
The answer should be written as a number, with no unit following it.

Known results for variants:
I32E ... -0.731
A65P ... -0.554
K34M ... -0.312
D36T ... -0.244
E62G ... -0.537

Item: `Q52A` | abundance fitness: 0.082

Item: `Y37L` | abundance fitness: -0.186

Item: `T57G` | abundance fitness: -0.004

Item: `I68W` | abundance fitness: -0.958

Item: `R46F` | abundance fitness: -0.447

Item: `T57Y` | abundance fitness: -0.658

Item: `L53H` | abundance fitness: -0.666

Item: `Q60A` | abundance fitness: -0.08

Item: `D58N` | abundance fitness: -0.141

Item: `D55Y` | abundance fitness: -0.445
